Field: growth. Provide a value for each of the compounds that follow.
Tested on: SF-539 CNS
Assay: NCI-60 one-dose screen, 48 h (100 = growth as untreated, 0 = no growth, -100 = all killed)
Details: 10 µM unless noted
This is part of a sample that, as a whole, favours compounds with a hit. Of some 83,000 tested, about 20% had one in any assay.
API: value field is a number in %; no unit string.

Q: Can you look up the measured growth of COc1ccc(N=Nc2c(N)nn3c(-c4ccc(F)cc4)ccnc23)cc1 for me?
Result: 67.5

Q: Can you look up the measured growth of Cc1nn(-c2ccccc2)c2nc(C)n(CC(=O)N/N=C/c3cccc([N+](=O)[O-])c3)c(=O)c12 for me?
Result: 95.3

Q: Can you look up the measured growth of O=C(NNC(=S)NCCc1ccccc1)c1ccc(OCc2nc3ccc(Cl)cc3[nH]2)cc1 for me?
Result: 84.3

Q: Can you look up the measured growth of O=C(CSc1nc2c(c(=O)[nH]1)CCCC2)Nc1ccccc1C(=O)O for me?
Result: 97.9

Q: Can you look up the measured growth of CS(=O)(=O)Nc1cc(-c2ccc3ncnc(N4CCc5cc(F)c(Cl)cc54)c3c2)cnc1Cl for me?
Result: -22.7

* * *

System: HOP-92 NSCLC
Experiment: NCI-60 one-dose screen, 48 h
Conditions: 10 µM unless noted
This is part of a sample that, as a whole, favours compounds with a hit. Of some 83,000 tested, about 20% had one in any assay. Calls of active or inactive are those of the source. Rule for the calls: active = growth percent below 10; inactive = the rest.
Please answer using one outcome listed in yes (1) for active, no (0) for inactive

Q: Entry Cc1ccc(C(=O)Nc2cccc(C(=O)NC(=S)Nc3ccc(S(N)(=O)=O)cc3)c2)cc1 : call = ?
Result: no (0)

Q: Entry CN(C)c1nc(NCCNS(=O)(=O)c2ccc(C(=O)/C=C/c3ccc(F)cc3)cc2)nc(N2CCOCC2)n1 : call = ?
Result: no (0)

Q: Entry COc1ccc2c(c1)C(Sc1ccc(F)cc1)c1c(nc(N)c(C#N)c1N)O2 (centres undefined) : call = ?
Result: no (0)

Q: Entry Oc1ccc(Cl)c(Nc2nc(SCCN3CCOCC3)nc3c2cnn3CC(Cl)c2ccc(Br)cc2)c1 (centres undefined) : call = ?
Result: yes (1)

Q: Entry COc1ccc(N=Nc2c(N)nn3c(N)c(C#N)c(-c4ccc(F)cc4)nc23)cc1 : call = ?
Result: yes (1)

Q: Entry COc1ccc(-c2nc3ccc(-c4nnc(SCc5ccccc5)o4)cc3[nH]2)cc1OC : call = ?
Result: yes (1)

Q: Entry C=CC(=O)Nc1ccc(C(=O)/C=C/c2ccc(N(C)C)cc2)c(O)c1 : call = ?
Result: no (0)

Q: Entry CCN1C(=O)N(CC)C2NNC(Sc3c(C(=O)O)c4ccccc4n(CC(C)C)c3=O)=NC21 (centres undefined) : call = ?
Result: no (0)

Q: Entry O=C1NC(=S)/C(=C/c2cn(-c3ccccc3)nc2-c2ccccc2)S1 : call = ?
Result: no (0)

* * *

Test system: HS 578T breast
Test: NCI-60 one-dose screen, 48 h (100 = growth as untreated, 0 = no growth, -100 = all killed)
Details: 10 µM unless noted
About 83,000 compounds went through this panel and 20% of them were active in at least one assay; those are over-represented in the sample as a whole.
Exam item: assign condition met to entries whose growth is below 20% and condition not met to entries at or above 20%. Note that a value of exactly 20% receives condition not met.

Q: Does COc1ccc(-c2cc(-c3cc(C(C)C)c(O)cc3C)nn2-c2ccc(S(N)(=O)=O)cc2)cc1 have growth strictly under 20%?
Result: condition not met

Q: Does O=C(Nc1ccc(Cl)c(C(F)(F)F)c1)N1CCN(c2cc(-c3cn(-c4ccccc4)nc3-c3cccc(O)c3)ccn2)CC1 have growth strictly under 20%?
Result: condition met

Q: Does O=C1Nc2cc(-c3ccc(NS(=O)(=O)c4ccc([N+](=O)[O-])cc4)cc3)ccc2/C1=C/c1ccc[nH]1 have growth strictly under 20%?
Result: condition not met

Q: Does CCCCCCCCc1ccc(C(=O)Nc2cccc(O)c2)cc1 have growth strictly under 20%?
Result: condition not met

Q: Does FC(F)(F)CN1CCN(CCn2c(C(F)(F)F)cc3c(Cl)ncnc32)CC1 have growth strictly under 20%?
Result: condition not met

Q: Does CN1C(=O)/C(=C\C(=O)c2cc3ccccc3oc2=O)c2ccccc21 have growth strictly under 20%?
Result: condition not met

Q: Does COc1cc(/C=C/C(=O)c2cnn(-c3cc(=O)[nH]c4ccc(Cl)cc34)c2C)cc(OC)c1OC have growth strictly under 20%?
Result: condition not met

Q: Does CC(C)C[C@H](NC(=O)[C@@H]1CCCCCCCCCCC(=O)N[C@@H](CC(=O)N2CCC[C@@H]2C2CCCC2)C(=O)N1)B(O)O have growth strictly under 20%?
Result: condition met

Q: Does Clc1ccc(Nc2nnc(-c3c[nH]c4ccccc34)o2)cc1 have growth strictly under 20%?
Result: condition not met

Q: Does CC[C@]12C=CCN3CC[C@]4(C(=C(C(=O)OC)C1)Nc1cc(OC)c([C@@H]5[C@H]6O[C@H]6[C@@]6(CC)CC(C(=O)OC)=C7Nc8cc(OC)ccc8[C@@]78CCN5[C@@H]68)cc14)[C@@H]32 have growth strictly under 20%?
Result: condition not met

Q: Does Cc1ccc(C(C)C)cc1Oc1cccc(-c2c(-c3ccc(C(F)(F)F)cc3)ncn2C2CCNCC2)n1 have growth strictly under 20%?
Result: condition met

Q: Does CN(C)c1nc(NCCNS(=O)(=O)c2ccc(C(=O)/C=C/c3ccc(C(F)(F)F)cc3)cc2)nc(N2CCOCC2)n1 have growth strictly under 20%?
Result: condition not met

Q: Does COc1cc(CNC(=O)C[C@H](C)CCC=C(C)C)ccc1OCc1cn(-c2ccccc2Cl)nn1 have growth strictly under 20%?
Result: condition not met

Q: Does c1n[nH]cc1-c1nc2ccc3[nH]ncc3c2c2c1CC1(CC2)COC1 have growth strictly under 20%?
Result: condition met

Q: Does N#CC1=C(c2ccco2)Nc2c(c(-c3ccccc3)nn2-c2ccccc2)C12C(=O)Nc1ccc(Cl)cc12 (centres undefined) have growth strictly under 20%?
Result: condition met

Q: Does Nc1nc(-c2ccccc2)c(N=Nc2ccc(Cl)cc2Cl)s1 have growth strictly under 20%?
Result: condition met

Q: Does CC1=C(C(=O)Nc2ccccc2)C(c2ccc3ccccc3c2)n2c(nc3ccccc32)N1 (centres undefined) have growth strictly under 20%?
Result: condition not met

Q: Does Cc1cn(-c2cc(NC(=O)c3ccc(C)c(-n4cc(-c5cnc6cccnn56)nn4)c3)cc(C(F)(F)F)c2)cn1 have growth strictly under 20%?
Result: condition not met

Q: Does O=C(c1ccc(O)cc1)C1[C@H](c2ccc(Cl)cc2)[C@@H](c2ccccc2)NC12C(=O)Nc1ccc(Br)cc12 (some centres undefined) have growth strictly under 20%?
Result: condition met

Q: Does CCOc1ccccc1[C@H]1C(C(=O)c2ccc(Cl)cc2)C2(N[C@@H]1c1ccccc1)C(=O)Nc1ccccc12 (some centres undefined) have growth strictly under 20%?
Result: condition met

Q: Does C[C@@H](Nc1c(C#N)cnc2ccc(-c3cnc4[nH]ncc4c3)cc12)c1ccccc1 have growth strictly under 20%?
Result: condition met

Q: Does N/C(=N\c1nc2ccc([N+](=O)[O-])cc2s1)NC(=O)Nc1ccccc1Cl have growth strictly under 20%?
Result: condition not met

Q: Does COc1ccc(N=Nc2c(N)nn3c(-c4ccc5c(c4)C=S=C5)ccnc23)cc1 have growth strictly under 20%?
Result: condition not met

Q: Does CCCCCCCCCCCCCCCCCC(=O)Nc1ccc(OC)cc1 have growth strictly under 20%?
Result: condition not met

Q: Does COc1cc(NC(=O)C(C)C)ccc1C(=O)NC(=S)Nc1ccc(S(N)(=O)=O)cc1 have growth strictly under 20%?
Result: condition not met

Q: Does Cc1ccc2c(c1)nc(-c1ccccc1)n2CC(=O)N=Nc1c(O)[nH]c2ccc(Cl)cc12 have growth strictly under 20%?
Result: condition met

Q: Does O=C(c1ccc(O)cc1)C1[C@H](c2ccccc2Br)[C@@H](c2ccccc2)NC12C(=O)Nc1ccccc12 (some centres undefined) have growth strictly under 20%?
Result: condition not met

Q: Does Cc1ccc(C2CC(c3ccc(S(=O)(=O)NCCNc4nc(N(C)C)nc(N5CCOCC5)n4)cc3)=Nc3c(N)nc(N)nc3N2)cc1 (centres undefined) have growth strictly under 20%?
Result: condition not met

Q: Does Cc1cc(=O)oc2cc(OCC(O)CNN3C(=O)c4cccc5c(N6CCN(C)CC6)ccc(c45)C3=O)ccc12 (centres undefined) have growth strictly under 20%?
Result: condition not met

Q: Does COc1ccc(-c2cc(-c3cc(OC)c(OC)c(OC)c3)[nH]c(=O)c2C#N)cc1 have growth strictly under 20%?
Result: condition not met

Q: Does Cc1ccc(C(=O)Nc2cc(-n3cnc(F)c3)cc(C(F)(F)F)c2)cc1C#Cc1cnc2cccnn12 have growth strictly under 20%?
Result: condition not met

Q: Does COc1sc(/C=N/NC(=O)c2[nH]c3ccc(Br)cc3c2-c2ccccc2)cc1Br have growth strictly under 20%?
Result: condition not met

Q: Does COc1c(B(O)O)cc(F)cc1-c1nc2c(F)cc3[nH]ncc3c2c2c1CCCC2 have growth strictly under 20%?
Result: condition met
